Test system: LOK
Construct: gene STK10
Conditions: concentration: 1 μM, replicates: in singlicate; n = 1;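 also: KINOMEscan kinase panel screen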
Measured %Inh of individual entries
measurement_kind: %Inh

1) CNc1nc(-c2ccc3c(N)n[nH]c3c2)cc(N2C[C@@H](C(=O)Nc3ccccc3)CC[C@H]2C)n1 :: 0%
2) COC(=O)c1cccc(NC(=O)NC2CCN(c3ccnc(Nc4ccc(F)cc4)n3)C2)c1 (centres unmarked) :: 0%
3) O=C(Nc1n[nH]c2nc(-c3cccs3)c(Br)cc12)C1CCCC1 :: 26%
4) Cc1ccc(-c2nc(Nc3ccncc3)c3ccccc3n2)s1 :: 1%
5) Cc1ccc(NC(=O)Nc2ccc(Cl)c(C(F)(F)F)c2)cc1-c1ccc(C(=O)Nc2ccncc2)cc1 :: 65%

* * *

Tested on: MST3
Construct: gene STK24
Conditions: concentration: 1 μM, replicates: in singlicate; n = 1
Classification field: rule met = %Inh at or over 5%; rule not met = %Inh under 5%.

1. O=C(Nc1n[nH]c2cc(-c3ccsc3)ccc12)C1CC1 :: rule met
2. COc1ccc(Nc2nccc(N3CCC(NC(=O)c4cc5ccccc5s4)C3)n2)cc1 (stereo not drawn) :: rule not met
3. COc1ccc(Nc2nccc(N3CCC(NC(=O)C(C)c4ccc(Cl)cc4)CC3)n2)cc1 (stereo not drawn) :: rule not met
4. Cc1c(Cn2c3ccccc3n3c(=O)cc(N4CCOCC4)nc23)cccc1C(F)(F)F :: rule not met
5. CS(=O)(=O)Cc1ccc(Nc2nccc(-c3c(-c4cccc(NC(=O)C5CCCCC5)c4)nn4ncccc34)n2)cc1 :: rule not met
6. Nc1ncnc2occ(-c3ccc4c(c3)CCN4C(=O)Cc3cc(F)ccc3F)c12 :: rule met
7. COc1ccc2cc(-c3nc(-c4ccccc4C(C)C)[nH]c3-c3ccncc3)ccc2c1 :: rule not met
8. COc1cccc(NC(=O)Nc2ccc(C)c(-c3ccc(C(=O)Nc4ccncc4)cc3)c2)c1 :: rule met
9. CC(C)c1cc(-c2ccc3c(N)n[nH]c3c2)nc(N)n1 :: rule met
10. Nc1cccc(-c2ccc3c(N)n[nH]c3c2)n1 :: rule met
11. CCn1c(-c2c(N)noc2C)nc2cnccc21 :: rule not met
12. COC(=O)C(Cc1ccccc1)NC(=O)NC1CCN(c2ccnc(Nc3ccc(F)cc3)n2)C1 (stereo not drawn) :: rule not met
13. c1ccc(-c2ccnc3[nH]ccc23)cc1 :: rule not met
14. CSc1ccc(-c2nc3n(c2-c2ccncc2)CCC3)cc1 :: rule not met
15. COC(=O)C(NC(=O)NC1CCN(c2ccnc(Nc3ccc(F)cc3)n2)C1)c1ccccc1 (stereo not drawn) :: rule not met
16. Cc1cccc2c(-c3ccncn3)c(-c3ccc(F)cc3)nn12 :: rule met
17. CC(C)c1ccc(O)cc1Nc1ccnc2ccc(C(F)(F)F)cc12 :: rule not met

* * *

System: GRK4
Conditions: concentration: 1 μM, replicates: in singlicate; n = 1
measurement_kind: %Inh (%)

1. FC(F)(F)c1ccccc1-c1cc(-c2c[nH]nc2-c2ccccn2)ccn1 :: 0
2. O=C(Nc1n[nH]c2cc(-c3ccsc3)ccc12)C1CC1 :: 79
3. CC[C@@H]1CO[C@H](C(=O)Nc2ccccc2)CN1c1cc(-c2ccc3c(N)n[nH]c3c2)nc(NC)n1 :: 0
4. Cc1ccccc1Cn1ccn2c(=O)cc(N3CCOCC3)nc12 :: 0
5. CNc1nc(-c2ccc3c(N)n[nH]c3c2)cc(N2C[C@@H](C(=O)NC3CCCCC3)OC[C@H]2C)n1 :: 4
6. COc1ccc(Nc2nccc(N3CCC(NC(=O)C(C)c4ccc(Cl)cc4)CC3)n2)cc1 (centres unmarked) :: 0
7. CNc1nc(-c2ccc3c(N)n[nH]c3c2)cc(N2C[C@@H](C(=O)Nc3ccccc3)CC[C@H]2C)n1 :: 0
8. O=c1cc(N2CCOCC2)nc2n(Cc3cccc(Cl)c3Cl)c3ccccc3n12 :: 25

All figures here come from paper PMC5540273.
